Test Description: pH of aqueous solutions of the compounds
Format: physicochemical
Condition Description: stock solutions prepared in culture media diluted with deionized water
Label Y when pH (H20) >= 7; otherwise N.

1. N[C@@H](Cc1ccc(O)cc1)C(=O)O = Y
2. CC(C)[C@H](N)C(=O)O = Y
3. CC(C)C[C@H](N)C(=O)O = Y
4. O=C([O-])c1ccccc1.[Na+] [SODIUM BENZOATE] = Y
5. C[C@H](N)C(=O)O = Y
6. Nc1nc2ncc(CNc3ccc(C(=O)N[C@@H](CCC(=O)O)C(=O)O)cc3)nc2c(=O)[nH]1 = N
7. NCCC(=O)O = Y
8. N[C@@H](CO)C(=O)O = Y
9. O=C(O)CCC(=O)C(=O)O [α-KE[…]] = N
10. C[C@@H](O)[C@H](N)C(=O)O = Y
11. NCCC(=O)N[C@@H](Cc1cnc[nH]1)C(=O)O = Y

* * *

Test Description: pH of aqueous solutions of the compounds
Assay type: physicochemical
Condition Description: stock solutions prepared in culture media diluted with deionized water
Entries and their measured pH (H20) follow.
Readout Label: pH (H20)

1) NC(=O)CC[C@H](N)C(=O)O [L-GLUTAMINE] = 7.14
2) O=C(O)c1cccnc1 [NICOTINIC ACID] = 6.91
3) N[C@@H](Cc1ccccc1)C(=O)O [PHENYLALANINE] = 6.97
4) CC[C@H](C)[C@H](N)C(=O)O [ISOLEUCINE] = 6.99

// provenance: patent US20030073654A1
